Provenance of the data: the supplement of paper PMC11208160

- protocol_details: recombinant barcode read abundance after kanamycin selection (control-corrected) (log10(CPM+1)); higher = more efficient recombination; sequences stand for … in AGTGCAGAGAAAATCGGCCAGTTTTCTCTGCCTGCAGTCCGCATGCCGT…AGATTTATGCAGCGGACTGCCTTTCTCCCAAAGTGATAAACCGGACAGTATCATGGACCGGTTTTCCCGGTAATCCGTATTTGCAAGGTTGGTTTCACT; site = the 11-nt target;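 note: IS621 recombinase and bridge RNA in Escherichia coli cells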
property_name: recombinant barcode read abundance (log10)
Just the number, please, no unit attached.

Consider the following illustrative entries.
# input Entry under review: GAGGTGCCTTGGGTTCTAACCTGTTGCAG (site GAGGTGCCTCT) . Reported recombinant barcode read abundance (log10)?
# output 1.44

# input // query: ACACTAGCTTGGGTTCTAACCTGTTGCTG (site ACAATAGCTCA)
# output 0.313

# input // query: GACTGTTCTTGGGTTCTAACCTGTTGCCT (site GACTGTTCTAG)
# output 0.13

# input // query: CGTCACCCTTGGGTTCTAACCTGTTGCCT (site CGTCATCCTAG)
# output 0.126

# input // query: CCAGCTGCTTGGGTTCTAACCTGTTGCCT (site GTGCGCTCTGC)
# output 0.137

More entries:
# input Entry under review: GAGTAGTCTTGGGTTCTAACCTGTTGCCT (site GAGGAGTCTAG) . Reported recombinant barcode read abundance (log10)?
# output 0.00957

# input // query: CAACGGCCTTGGGTTCTAACCTGTTGCCT (site CAATGGCCTAG)
# output 0.0566

# input // query: TGTAATTCTTGGGTTCTAACCTGTTGCCT (site TGTAATCCTAG)
# output 0.0849

# input // query: TTGGGAGCTTGGGTTCTAACCTGTTGCCT (site TTGGAAGCTAG)
# output 0.984

# input // query: AGGTATGCTTGGGTTCTAACCTGTTGCCT (site AGGTCTGCTAG)
# output 0.0877

----------
- protocol_details: recombinant barcode read abundance after kanamycin selection (control-corrected) (log10(CPM+1)); higher = more efficient recombination; sequences stand for … in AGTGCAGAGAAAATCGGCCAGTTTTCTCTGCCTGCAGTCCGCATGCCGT…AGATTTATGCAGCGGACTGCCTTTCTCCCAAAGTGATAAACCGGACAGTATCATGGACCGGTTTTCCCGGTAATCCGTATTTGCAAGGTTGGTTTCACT; site = the 11-nt target
Hi all, reminder that labels come from recombinant barcode read abundance (log10), split as low value = under 0.2, medium value = from 0.2 up to 0.4, high value = 0.4 and over

Example entries and their recorded answers appear below.
# input Place this sequence in its band: CGACTTACTTGGGTTCTAACCTGTTGCAT (site ACGGGCTCTGA)
# output low value

# input // query: GACGGATCTTGGGTTCTAACCTGTTGCAT (site GACGGATCTAA)
# output low value

# input // query: AGCCCTCCTTGGGTTCTAACCTGTTGCTA (site AGCCCTCCTCA)
# output high value

# input // query: ACAAAGGCTTGGGTTCTAACCTGTTGCGG (site ACAAAGGCTCC)
# output high value

# input // query: CAGTTCGCTTGGGTTCTAACCTGTTGCCT (site CAGTTCGCTAG)
# output high value

# input // query: TCCCGACCTTGGGTTCTAACCTGTTGCCT (site TCCCGACCTAG)
# output high value

# input // query: GTGCGCCCTTGGGTTCTAACCTGTTGCGG (site GTGCGCCCTAC)
# output medium value

# input // query: CCTTACCCTTGGGTTCTAACCTGTTGCCT (site CCTTAGCCTAG)
# output low value

# input // query: GACTGAGCTTGGGTTCTAACCTGTTGCGG (site AGACAGTCTTG)
# output low value

Please find the next sequence below.
# input Place this sequence in its band: GCGTCACCTTGGGTTCTAACCTGTTGCCT (site TCGTCACCTAG)
# output medium value
